- system: Human PI3K delta (Homo sapiens, UniProt O00329)
- Construct: His (N); host or cells: SF9 insect cells (baculovirus)
- Sequence (O00329 whole entry): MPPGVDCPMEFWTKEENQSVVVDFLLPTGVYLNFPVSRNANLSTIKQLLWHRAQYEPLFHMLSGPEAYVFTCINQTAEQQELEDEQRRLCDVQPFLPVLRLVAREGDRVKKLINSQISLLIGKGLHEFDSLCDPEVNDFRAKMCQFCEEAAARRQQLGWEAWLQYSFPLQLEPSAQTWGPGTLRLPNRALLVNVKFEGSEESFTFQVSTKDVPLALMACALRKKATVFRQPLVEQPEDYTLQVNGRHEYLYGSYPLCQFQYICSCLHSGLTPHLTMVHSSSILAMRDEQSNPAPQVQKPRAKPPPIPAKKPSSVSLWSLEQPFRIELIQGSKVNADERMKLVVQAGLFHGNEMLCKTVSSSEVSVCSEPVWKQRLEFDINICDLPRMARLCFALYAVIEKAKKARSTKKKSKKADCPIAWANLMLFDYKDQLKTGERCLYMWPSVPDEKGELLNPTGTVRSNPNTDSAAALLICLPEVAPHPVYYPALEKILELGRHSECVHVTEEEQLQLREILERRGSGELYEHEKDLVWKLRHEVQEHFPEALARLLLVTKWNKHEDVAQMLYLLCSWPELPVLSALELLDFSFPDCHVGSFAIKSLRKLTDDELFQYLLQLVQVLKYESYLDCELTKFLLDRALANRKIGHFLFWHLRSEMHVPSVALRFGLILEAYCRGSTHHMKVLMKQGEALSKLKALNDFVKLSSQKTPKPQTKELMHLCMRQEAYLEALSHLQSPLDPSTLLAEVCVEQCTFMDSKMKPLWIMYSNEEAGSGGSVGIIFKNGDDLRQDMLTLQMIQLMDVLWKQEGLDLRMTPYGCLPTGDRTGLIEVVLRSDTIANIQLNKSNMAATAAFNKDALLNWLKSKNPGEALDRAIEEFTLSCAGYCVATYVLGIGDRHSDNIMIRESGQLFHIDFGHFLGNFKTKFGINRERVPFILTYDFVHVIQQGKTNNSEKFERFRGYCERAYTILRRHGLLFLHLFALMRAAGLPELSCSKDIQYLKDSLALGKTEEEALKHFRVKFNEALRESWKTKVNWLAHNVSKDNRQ
- Sequence (P27986 whole entry partner): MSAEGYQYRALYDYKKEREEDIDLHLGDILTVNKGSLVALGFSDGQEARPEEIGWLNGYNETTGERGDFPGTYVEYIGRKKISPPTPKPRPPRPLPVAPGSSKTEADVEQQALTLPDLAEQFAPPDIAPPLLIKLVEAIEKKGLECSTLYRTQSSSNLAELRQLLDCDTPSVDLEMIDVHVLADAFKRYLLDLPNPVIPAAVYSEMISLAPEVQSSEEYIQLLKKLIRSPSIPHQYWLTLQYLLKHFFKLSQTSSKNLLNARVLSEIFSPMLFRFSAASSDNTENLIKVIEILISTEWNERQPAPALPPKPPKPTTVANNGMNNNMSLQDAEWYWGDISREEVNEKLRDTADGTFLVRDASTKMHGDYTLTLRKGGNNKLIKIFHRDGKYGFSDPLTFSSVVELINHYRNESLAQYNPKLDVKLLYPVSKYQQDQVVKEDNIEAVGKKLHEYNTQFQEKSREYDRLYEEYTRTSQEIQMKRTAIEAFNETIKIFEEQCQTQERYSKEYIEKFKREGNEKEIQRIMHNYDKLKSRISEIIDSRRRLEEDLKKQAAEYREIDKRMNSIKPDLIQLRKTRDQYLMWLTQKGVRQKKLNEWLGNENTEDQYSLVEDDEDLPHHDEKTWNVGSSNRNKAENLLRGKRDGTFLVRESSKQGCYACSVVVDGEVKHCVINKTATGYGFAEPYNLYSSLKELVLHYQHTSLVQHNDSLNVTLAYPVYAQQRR
- test.summary: Human PI3K delta enzyme assay (HTRF)
- Type: biochemical
- measurement.context: concentration not given; b1389 states 1.0 μM for PI3K δ and γ; read-out: p110 delta Percent Inhibition
readout: inhibition at 1 µM (%)

Sample records with inhibition at 1 µM:
[[record]]
compound = "OC(c1nc(-c2ccccc2)cs1)c1cc(-c2ccncc2)sc1-c1nnc[nH]1 (centres unmarked) [Compound 133]"
system = "Human PI3K delta (Homo sapiens, UniProt O00329)"
quantity_unit = "%"
data_value = 74

[[record]]
compound = "OC(c1ccc2ccccc2n1)c1cc(-c2ccncc2)sc1-c1nnc[nH]1 (centres unmarked) [Compound 171]"
system = "Human PI3K delta (Homo sapiens, UniProt O00329)"
quantity_unit = "%"
data_value = 99

[[record]]
compound = "OC(c1ccc(Cl)c(F)c1)c1cc(-c2ccncc2)sc1-c1nnc[nH]1 (centres unmarked) [Compound 232]"
system = "Human PI3K delta (Homo sapiens, UniProt O00329)"
quantity_unit = "%"
data_value = 67

[[record]]
compound = "O=C(O)c1sc(N2CCOCC2)nc1Cc1cc(F)c2ccccc2c1 [Compound 338]"
system = "Human PI3K delta (Homo sapiens, UniProt O00329)"
quantity_unit = "%"
data_value = 109

[[record]]
compound = "CC(c1ccc2ccccc2c1)c1nc(N2CCOCC2)sc1C(=O)O (centres unmarked) [Compound 346]"
system = "Human PI3K delta (Homo sapiens, UniProt O00329)"
quantity_unit = "%"
data_value = 98


P. CC(=O)Nc1cc(-c2cc(C(NCC3CNC3)c3ccc(Cl)cc3)c(-c3nnc[nH]3)s2)ccn1 (centres unmarked) [Compound 129]
Q. OC(c1ccc(-c2ccncc2)cc1)c1cc(-c2ccncc2)sc1-c1nnc[nH]1 (centres unmarked) [Compound 207]
R. N#Cc1c(N2CCOCC2)sc(C(=O)O)c1Cc1ccc2c(c1)CCCC2 [Compound 305]
S. CC(C)C(c1ccc(Cl)cc1)c1nc(N2CCOCC2)sc1C(=O)O (centres unmarked) [Compound 304]
Order each entry by recorded inhibition at 1 µM, climbing from the minimum. List the labels in the requested order. S, Q, R, P

---

IC50 values for the compounds below.
- system: Human PI3K beta (Homo sapiens, UniProt P42338)
- Sequence (P42338 whole entry, one chain of several): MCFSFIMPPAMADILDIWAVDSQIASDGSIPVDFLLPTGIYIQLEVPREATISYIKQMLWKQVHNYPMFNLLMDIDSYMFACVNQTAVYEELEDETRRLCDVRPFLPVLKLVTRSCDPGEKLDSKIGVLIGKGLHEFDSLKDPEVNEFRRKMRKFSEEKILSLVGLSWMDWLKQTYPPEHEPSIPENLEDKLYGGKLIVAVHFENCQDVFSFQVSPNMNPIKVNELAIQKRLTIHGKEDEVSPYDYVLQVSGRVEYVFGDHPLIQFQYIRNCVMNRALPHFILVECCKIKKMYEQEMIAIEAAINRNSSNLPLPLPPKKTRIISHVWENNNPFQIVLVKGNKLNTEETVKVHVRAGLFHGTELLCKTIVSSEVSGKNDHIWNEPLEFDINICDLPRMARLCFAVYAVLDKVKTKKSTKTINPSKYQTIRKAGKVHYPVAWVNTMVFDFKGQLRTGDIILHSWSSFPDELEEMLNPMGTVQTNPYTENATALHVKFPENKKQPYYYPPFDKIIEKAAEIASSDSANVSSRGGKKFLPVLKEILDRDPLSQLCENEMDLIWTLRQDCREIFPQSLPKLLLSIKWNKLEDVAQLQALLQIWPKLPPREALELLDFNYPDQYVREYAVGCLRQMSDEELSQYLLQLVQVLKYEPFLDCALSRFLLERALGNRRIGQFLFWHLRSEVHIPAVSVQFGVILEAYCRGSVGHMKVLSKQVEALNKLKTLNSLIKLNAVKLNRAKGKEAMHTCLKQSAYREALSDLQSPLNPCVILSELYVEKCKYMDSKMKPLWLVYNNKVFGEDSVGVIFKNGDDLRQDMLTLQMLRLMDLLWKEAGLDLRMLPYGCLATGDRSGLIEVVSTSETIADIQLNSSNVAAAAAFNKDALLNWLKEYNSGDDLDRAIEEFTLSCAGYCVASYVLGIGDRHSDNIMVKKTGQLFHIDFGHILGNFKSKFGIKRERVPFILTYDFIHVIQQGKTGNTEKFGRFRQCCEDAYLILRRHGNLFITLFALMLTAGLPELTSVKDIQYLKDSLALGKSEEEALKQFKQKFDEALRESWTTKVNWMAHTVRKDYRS

Sample records with IC50:
[[record]]
compound = "Cc1cc(-c2cc(C(O)c3ccc(Cl)cc3)c(-c3nnc[nH]3)s2)ccn1 (centres unmarked)"
data_value = "< 100 nM"

[[record]]
compound = "COc1cc(-c2cc(C(O)c3ccc(Cl)cc3)c(-c3nnc[nH]3)s2)ccn1 (centres unmarked)"
data_value = "100 to 1000 nM"

[[record]]
compound = "Clc1ccc(Cc2cc(-c3ccncc3)sc2-c2nnc[nH]2)cc1"
data_value = "< 100 nM"


Find the recorded IC50 belonging to CC(=O)Nc1cc(-c2nc(Cc3ccccc3Cl)c(-c3ncc[nH]3)s2)ccn1 and report it. > 1000 nM

Next up: Cc1cc(-c2cc([C@H](O)c3ccc(Cl)cc3)c(-c3nnc[nH]3)s2)ccn1 < 100 nM

---

- system: Human PI3K beta (Homo sapiens, UniProt P42338)
- Construct: His (N); host or cells: SF9 insect cells (baculovirus)
- test.summary: Human PI3K beta enzyme assay (HTRF)
- Format: biochemical
- measurement.context: at a 1.1 μM concentration; read-out: PI3β Percent Inhibition
readout: inhibition at 1.1 µM (%)

[[record]]
smiles_notation = "O=C(O)c1sc(N2CCOCC2)nc1Cc1ccc(Cl)cc1F"
data_value = 105

[[record]]
smiles_notation = "N#Cc1c(N2CCOCC2)sc(C(=O)O)c1Cc1ccc2ccccc2c1"
data_value = 110

[[record]]
smiles_notation = "O=C(O)c1sc(N2CCOCC2)nc1Cc1ccc(C(F)(F)F)cc1"
data_value = 77

[[record]]
smiles_notation = "O=C(O)c1sc(C2=CCOCC2)nc1Cc1ccc(Cl)cc1"
data_value = 98

[[record]]
smiles_notation = "COc1ccc(Cc2c(C(=O)O)sc(N3CCOCC3)c2C#N)cc1Cl"
data_value = 100

[[record]]
smiles_notation = "N#Cc1c(N2CCOCC2)sc(C(=O)O)c1Cc1ccc(Cl)cc1Cl"
data_value = 109

[[record]]
smiles_notation = "O=C(O)c1sc(N2CCOCC2)nc1Cc1ccc(F)cc1Cl"
data_value = 72

[[record]]
smiles_notation = "COc1ccc(Cc2nc(N3CCOCC3)sc2C(=O)O)cc1"
data_value = 71

[[record]]
smiles_notation = "COc1ccc(Cc2nc(N3CCOCC3)sc2C(=O)O)c(Cl)c1"
data_value = 97


---

- system: Human PI3K alpha (Homo sapiens)
- Construct: His (N); host or cells: SF9 insect cells (baculovirus)
- test.summary: Human PI3K alpha enzyme assay (HTRF)
- Format: biochemical
- measurement.context: concentration not given; b1387 states 1.1 μM for PI3K α and β; read-out: p110 alpha Percent Inhibition
readout: inhibition at 1.1 µM (%)

Sample records with inhibition at 1.1 µM:
[[record]]
molecule = "CC(=O)Nc1cc(-c2cc(C(c3ccc(Cl)cc3)N3CC[C@H](CO)C3)c(-c3nnc[nH]3)s2)ccn1 (some centres unmarked)"
data_value = 72

[[record]]
molecule = "CC(=O)Nc1cc(-c2cc(C(c3ccc(Cl)cc3)N3CC[C@@H](O)C3)c(-c3nnc[nH]3)s2)ccn1 (some centres unmarked)"
data_value = 87

[[record]]
molecule = "CC(=O)Nc1cc(-c2cc(C(c3ccc(Cl)cc3)N3CCC(F)(F)CC3)c(-c3nnc[nH]3)s2)ccn1 (centres unmarked)"
data_value = 62


a. COC(=O)Nc1cc(-c2cc(C(c3ccc(Cl)cc3)N3CCNCC3)c(-c3nnc[nH]3)s2)ccn1 (centres unmarked)
b. O=C(O)c1sc(N2CCOCC2)nc1Cc1ccc2cccc(F)c2c1
c. CN(C)C(c1ccc(Cl)cc1)c1cc(-c2ccnc(N)c2)sc1-c1nnc[nH]1 (centres unmarked)
d. O=C(O)c1sc(N2CCOCC2)nc1Cc1ccc2ccncc2c1
Order each entry by recorded inhibition at 1.1 µM, climbing from the minimum. List the labels in the requested order. c, d, b, a
(c: 16%, d: 24%, b: 39%, a: 61%)

I. CC(=O)Nc1cc(-c2cc(C(c3ccc(Cl)cc3)N3CC(F)(F)C3)c(-c3nnc[nH]3)s2)ccn1 (centres unmarked)
II. O=C(O)c1sc(N2CCOCC2)nc1Cc1ccc2cc[nH]c2c1
Which of the two gives a bigger number for inhibition at 1.1 µM: I or II ? To answer, give the label that identifies your chosen option. I

---

- system: Human PI3K alpha (Homo sapiens, UniProt P42336)
- Construct: His (N); host or cells: SF9 insect cells (baculovirus)
- Sequence (P42336 whole entry): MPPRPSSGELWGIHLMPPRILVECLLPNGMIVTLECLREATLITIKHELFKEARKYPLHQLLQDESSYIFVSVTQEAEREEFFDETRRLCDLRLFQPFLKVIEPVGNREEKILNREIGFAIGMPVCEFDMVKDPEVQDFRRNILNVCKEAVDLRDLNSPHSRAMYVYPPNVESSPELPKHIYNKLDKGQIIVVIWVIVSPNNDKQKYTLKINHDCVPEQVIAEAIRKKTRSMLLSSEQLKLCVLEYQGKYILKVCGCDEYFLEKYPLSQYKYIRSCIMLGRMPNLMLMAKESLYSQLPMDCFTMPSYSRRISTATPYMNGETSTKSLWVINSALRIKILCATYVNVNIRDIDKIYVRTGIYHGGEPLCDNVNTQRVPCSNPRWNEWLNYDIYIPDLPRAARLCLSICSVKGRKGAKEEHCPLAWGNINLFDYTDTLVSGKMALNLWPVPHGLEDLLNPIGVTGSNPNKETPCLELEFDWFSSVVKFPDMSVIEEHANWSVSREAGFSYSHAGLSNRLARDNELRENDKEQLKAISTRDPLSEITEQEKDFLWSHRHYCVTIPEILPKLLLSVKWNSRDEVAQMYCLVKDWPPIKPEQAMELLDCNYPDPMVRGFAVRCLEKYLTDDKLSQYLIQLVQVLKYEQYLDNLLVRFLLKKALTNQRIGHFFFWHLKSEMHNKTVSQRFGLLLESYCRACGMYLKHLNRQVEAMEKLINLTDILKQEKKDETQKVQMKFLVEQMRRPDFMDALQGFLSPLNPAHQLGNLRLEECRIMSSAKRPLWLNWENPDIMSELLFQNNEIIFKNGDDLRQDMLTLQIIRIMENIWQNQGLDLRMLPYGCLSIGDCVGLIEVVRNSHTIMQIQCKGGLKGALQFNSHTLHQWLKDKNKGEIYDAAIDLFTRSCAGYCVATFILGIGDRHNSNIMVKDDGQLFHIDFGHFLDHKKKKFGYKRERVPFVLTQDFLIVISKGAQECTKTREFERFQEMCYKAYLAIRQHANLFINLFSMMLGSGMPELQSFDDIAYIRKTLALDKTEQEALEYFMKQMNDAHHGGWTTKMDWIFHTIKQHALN
- Sequence (P27986 whole entry partner): as the sequence (P27986 whole entry partner) above
- test.summary: Human PI3K alpha enzyme assay (HTRF)
- Format: biochemical
- measurement.context: at a 1.1 μM concentration; read-out: PI3Kα Percent Inhibition
- Method: The catalytic subunits of PI3Ks are cloned into either pDEST8(p110 alpha) or pDEST10(p110beta, p110delta, and p110gamma) as N-terminal His tagged fusion proteins using the Gateway system (Invitrogen, catalog#11804-010 for pDEST8 and 11806-015 for pDEST10). […] For the assay methods described above, test compound percent inhibition, at various concentrations, is calculated relative to control (DMSO and EDTA) treated samples. […]
Where a name gives a salt, the structure may show the parent alone.
readout: inhibition at 1.1 µM (%)

[[record]]
molecule = "COc1ccc(Cc2nc(N3CCOCC3)sc2C(=O)O)cc1"
readout = "inhibition at 1.1 µM"
data_value = 2

[[record]]
molecule = "COc1ccc(Cc2c(C(=O)O)sc(N3CCOCC3)c2C#N)cc1Cl"
readout = "inhibition at 1.1 µM"
data_value = 44


a. CC(c1ccc(Cl)cc1)c1nc(N2CCOCC2)sc1C(=O)O (centres unmarked)
b. O=C(O)c1sc(N2CCOCC2)nc1Cc1ccc2c(c1)OCCO2
Which of the two gives a bigger number for inhibition at 1.1 µM: a or b ? To answer, give the label that identifies your chosen option. a

a. O=C(O)c1sc(N2CCOCC2)nc1Cc1ccc(F)cc1
b. COc1cc(Cl)ccc1Cc1c(C(=O)O)sc(N2CCOCC2)c1C#N
c. O=C(O)c1sc(C2=CCOCC2)nc1Cc1ccc(Cl)cc1
d. N#Cc1c(N2CCOCC2)sc(C(=O)O)c1Cc1ccc2ccccc2c1
e. O=C(O)c1sc(N2CCOCC2)nc1Cc1ccc(Cl)cc1F
Sort these molecules on inhibition at 1.1 µM so the largest reading comes first. List the labels in the requested order. d, b, e, c, a
(d: 95%, b: 46%, e: 30%, c: 20%, a: 9%)

P. N#Cc1ccc(Cc2nc(N3CCOCC3)sc2C(=O)O)cc1
Q. N#Cc1c(N2CCOCC2)sc(C(=O)O)c1Cc1ccc(F)cc1
Between item P and item Q , which reported inhibition at 1.1 µM is smaller? To answer, give the label that identifies your chosen option. P
(P: 9%, Q: 53%)

a. O=C(O)c1sc(N2CCOCC2)nc1Cc1ccc(F)cc1Cl
b. N#Cc1c(N2CCOCC2)sc(C(=O)O)c1C(N)c1ccc(Cl)cc1 (centres unmarked) [Compound 113, hydrochloride]
Which of the two gives a bigger number for inhibition at 1.1 µM: a or b ? To answer, give the label that identifies your chosen option. b
(b: 25%, a: 12%)

I. O=C(O)c1sc(N2CCOCC2)nc1Cc1ccc(Cl)cc1
II. N#Cc1c(N2CCOCC2)sc(C(=O)O)c1Cc1ccc(Cl)cc1F
Between item I and item II , which reported inhibition at 1.1 µM is smaller? To answer, give the label that identifies your chosen option. I

I. O=C(O)c1sc(N2CCOCC2)nc1Cc1ccc2ccccc2c1
II. O=C(O)c1sc(N2CCOCC2)nc1Cc1ccc(Cl)c(Cl)c1
III. COc1ccc(Cc2nc(N3CCOCC3)sc2C(=O)O)c(Cl)c1
IV. O=C(O)c1sc(N2CCOCC2)nc1Cc1ccc(Cl)c(F)c1
Order each entry by recorded inhibition at 1.1 µM, climbing from the minimum. List the labels in the requested order. III, IV, II, I

1. O=C(O)c1sc(N2CCOCC2)nc1Cc1ccc2cc(F)ccc2c1
2. N#Cc1c(N2CCOCC2)sc(C(=O)O)c1Cc1ccc(Cl)c(Cl)c1
3. O=C(O)c1sc(N2CCOCC2)nc1Cc1ccc(C(F)(F)F)cc1
4. O=C(O)c1sc(N2CCOCC2)nc1Cc1ccc(Cl)cc1Cl
Order each entry by recorded inhibition at 1.1 µM, climbing from the minimum. List the labels in the requested order. 3, 4, 1, 2
(3: 7%, 4: 26%, 1: 46%, 2: 79%)

A. N#Cc1c(N2CCOCC2)sc(C(=O)O)c1Cc1c(F)cc(Cl)cc1F
B. N#Cc1c(C2=CCOCC2)sc(C(=O)O)c1Cc1ccc(Cl)cc1
Which of the two gives a bigger number for inhibition at 1.1 µM: A or B ? To answer, give the label that identifies your chosen option. B
